- method: binders of probe aFST on microarray, primary screen, stem cell growth factor project, biochemical, small-molecule microarray, fluorescence 635/667 (AID 1086);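 further: score merges 667 nm fluorescence with signal-to-noise of each printed compound spot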
- particulars: higher = more signal
measure name: composite z-score
Give bare numbers.

# count of solved cases: 5
Lookup: Look at this molecule and give its reported composite z-score. CC(C)C(CO)N1C(=O)[C@]2(C)C3C(=O)OCCC/C=C\[C@H]3OC23C=CCN(c2ccc(Cl)cc2)C(=O)[C@@H]13 (stereo partly specified)
Found: 0.0043

Lookup: Field request: composite z-score | item: "C[N+](C)(C)CCCC[C@@H]1NC(=O)[C@@H]2C[C@H](C(=O)O)[C@H](c3ccc(O)cc3)N2C1=O"
Found: -0.639

Lookup: Param item = "CO[C@H]1O[C@H](CO)[C@@H](OC(=O)Nc2ccc(Oc3ccccc3)cc2)[C@H](OC(=O)Nc2ccccc2-c2ccccc2)[C@@H]1OC(=O)Nc1ccccc1-c1ccccc1" ; retrieve measured composite z-score.
Found: 1.03

Lookup: // query composite z-score value for entry "O=C1O[C@@H](c2ccccc2)[C@@H](c2ccccc2)N2[C@@H](c3ccccc3OCCO)[C@]3(C(=O)Nc4ccccc43)[C@@H](C(=O)NC[C@H](O)c3ccccc3)[C@H]12"
Found: -0.127

Lookup: Requested field: composite z-score. Item: "O=C1O[C@H](c2ccccc2)[C@H](c2ccccc2)N2[C@H]1[C@@H](C(=O)O)[C@]1(C(=O)Nc3ccccc31)[C@H]2c1ccc(O)cc1"
Found: -0.388

Below: the item to evaluate.
Lookup: Report composite z-score for NC(=O)N1C(=O)C2C(C1=O)C1C=C(CCCO)C2C(c2cccs2)N1Cc1cc2c(cc1Br)OCO2 (stereo unspecified) please.
Found: 0.117

* * *

- method: CREB reporter modulators under forskolin, primary screen, cell-based, PC12, CRE-LacZ reporter, forskolin-stimulated (AID 1146);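 further: PC12 cells with 6xCRE LacZ reporter stimulated by forskolin 10 µM; beta-galactosidase reporter signal reflecting CREB driven transcription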
- particulars: luminescence, 4.5 h, higher = more signal, called active from +8 up or from −8 down
Please enter True where z-score is greater than or equal to -0.7, and False where it is lower.

Use these answered entries as a reference point.
Lookup: Determine whether this compound has z-score no lower than -0.7: "COCCCNC(=O)[C@]1(Cc2ccccc2N=[N+]=[N-])N=C(c2ccc(OCCCO)cc2)O[C@@H]1c1ccccc1N=[N+]=[N-]"
Found: False

Lookup: Record O=C1NC(=O)C2C1C=CC(C(O)c1ccc3c(c1)OCO3)N2Nc1ccccn1 (configuration not stated) ; criterion: z-score no lower than -0.7. Met?
Found: True

Lookup: # bool: z-score of CC(C)N1CC=CC23O[C@@H]4C=CCCOC(=O)C4[C@H]2C(=O)N(CCO)[C@@H]3C1=O (some centres not stated) >= -0.7
Found: True

Lookup: Given CC=CC(O)C1C=CC2C(=O)N(C)C(=O)C2N1N1CCCCC1 (configuration not stated) , state whether its z-score is at least -0.7.
Found: True

---
Lookup: Hello, I need to know if "C=CCN1C(=O)[C@@]2(CCC(=O)OC(C)(C)C)N=C(c3ccc(OCCCO)cc3)O[C@H]2c2ccccc21" has measured z-score not below -0.7. Thanks!
Found: False

Lookup: hey, is z-score for this one >= -0.7? "COCCOC(=O)N1C(=O)[C@@]2(c3cc(C#CCC(C(=O)OC)C(=O)OC)ccc31)[C@H](c1ccc(OCCO)cc1)N1[C@H](c3ccccc3)[C@H](c3ccccc3)OC(=O)[C@H]1[C@@H]2C(=O)N1CCN(c2ncccn2)CC1"
Found: False

Lookup: I'd appreciate it if you could say whether CC(=O)n1cc(C(O)C2C=CC3C(=O)N(c4ccccc4)C(=O)C3N2Nc2ccccc2)c2ccccc21 (configuration not stated) has z-score at least equal to -0.7.
Found: True
